# System: MDAMB415
# ASSAY SUMMARY: GRmax, 72 h; higher = less effect;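 further: breast cell lines in 384-well plates, nine doses across a 10^4 range, Dye Drop imaging of viable cells vs DMSO and time-zero plates, GR 0 means no net growth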
Record form. Attribute: GRmax, 72 h. Fill in for each entry.
Give the number; GR is assumed, so skip it.

Quick note, GRmax, 72 h for CNCc1ccc(-c2[nH]c3cc(F)cc4c3c2CCNC4=O)cc1 [Rucaparib] (max 10 µM) landed at 0.642

Quick note, GRmax, 72 h for Cc1nc(Nc2ncc(C(=O)Nc3c(C)cccc3Cl)s2)cc(N2CCN(CCO)CC2)n1 [Dasatinib] (max 10 µM) landed at 0.342

Quick note, GRmax, 72 h for C=CC(=O)Nc1ccc(C(=O)Nc2[nH]nc3c2CN(C(=O)N[C@H](CN(C)C)c2ccccc2)C3(C)C)cc1 [YKL-5-124] (max 10 µM) landed at -0.0129

Quick note, GRmax, 72 h for CC(C)NC[C@@H](C(=O)N1CCN(c2ncnc3c2[C@H](C)C[C@H]3O)CC1)c1ccc(Cl)cc1 [Ipatasertib/GDC0068] (max 10 µM) landed at -0.698
